ASSAYED TARGET: AKT2 (Homo sapiens)
Sequence (P31751 whole entry): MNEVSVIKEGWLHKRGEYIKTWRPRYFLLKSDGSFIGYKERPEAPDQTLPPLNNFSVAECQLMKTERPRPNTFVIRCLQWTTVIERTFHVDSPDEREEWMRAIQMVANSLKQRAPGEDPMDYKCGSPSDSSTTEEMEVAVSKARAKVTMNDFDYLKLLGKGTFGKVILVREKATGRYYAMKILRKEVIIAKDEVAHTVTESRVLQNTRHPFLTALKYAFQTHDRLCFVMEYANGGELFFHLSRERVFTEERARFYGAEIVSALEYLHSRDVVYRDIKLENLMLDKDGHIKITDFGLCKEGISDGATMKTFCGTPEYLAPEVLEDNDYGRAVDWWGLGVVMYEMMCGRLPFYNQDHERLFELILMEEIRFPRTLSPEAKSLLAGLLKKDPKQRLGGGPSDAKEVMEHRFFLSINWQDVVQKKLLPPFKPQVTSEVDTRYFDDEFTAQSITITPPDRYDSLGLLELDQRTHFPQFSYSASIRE
pIC50: −log10 of the molar value.
OBSERVABLE: pIC50

[[record]]
structure = "C=C1C(=O)[C@]23[C@H](O)[C@H]1CC[C@H]2[C@@]12CO[C@]3(O)[C@@H](O)[C@@H]1C(C)(C)CC[C@@H]2O"
observable = "pIC50"
observed_result = 5.05

